Where these numbers come from: PubChem BioAssay (NCI)

Below, each entry is listed alongside its reported growth.
system: SF-295 CNS; experiment: NCI-60 one-dose screen, 48 h (100 = growth as untreated, 0 = no growth, -100 = all killed); settings: 10 µM unless noted
The panel holds about 83,000 compounds, 20% with a hit somewhere; the sample as a whole holds those more often.
Response body: numeric value in %, unit text excluded.

Past entries and their recorded results:
Molecule	growth, %
COc1ccc(Nc2ccc([N+](=O)[O-])cc2[N+](=O)[O-])cc1CN(CCCl)CCCl	37.6
C/C(=C\c1ccn(-c2ccccc2N)n1)[C@@H]1C[C@@H]2O[C@]2(C)CCC[C@H](C)[C@H](O)[C@@H](C)C(=O)C(C)(C)[C@@H](O)CC(=O)O1	13.8
CN1CCC(c2c[nH]c3ccccc23)C1 (stereo not given)	105
CC(=O)[O][Hg][c]1c(N)c(C)cc(C)c1F	73

Could you now look at the following molecule, please?
Given Cn1cc(-c2csc(-c3cn(CCCCN4CCCCC4)c4ccc(F)cc34)n2)c2cccnc21 , state its recorded growth.
99.7
